Data provenance is paper PMC5011342.

Here, each record is paired with measured viability at 10 µM data.
System: expanded OPCs
procedure_text: cells
condition_details: Rattus norvegicus, 72 h, read-out: 10 µM (% DMSO), alamarBlue viability of expanded OPCs, compound at 10 µM, sheet All Tox data
Just the number in %, nothing appended.

These solved cases illustrate the format of a correct answer.
[
  {
    "molecule": "C[C@]12C/C(=C/O)C(=O)C[C@@H]1CC[C@@H]1[C@@H]2CC[C@@]2(C)[C@H]1CC[C@]2(C)O",
    "measured_target": "expanded OPCs",
    "reported_property": "viability at 10 µM",
    "measured_number": 48.9
  },
  {
    "molecule": "CN(C)CCCC1(c2ccc(F)cc2)OCc2cc(C#N)ccc21 (centres unmarked) [Nitalapram, reference compound]",
    "measured_target": "expanded OPCs",
    "reported_property": "viability at 10 µM",
    "measured_number": 110
  },
  {
    "molecule": "CC(COc1ccccc1Cc1ccccc1)N1CCCCC1 (centres unmarked) [Benproperine, reference compound]",
    "measured_target": "expanded OPCs",
    "reported_property": "viability at 10 µM",
    "measured_number": 20.9
  },
  {
    "molecule": "C[C@H]1O[C@H](O[C@H]2[C@H](O)[C@@H](O)[C@@H](O[C@H]3[C@H](O)[C@@H](O)C(O)O[C@@H]3CO)O[C@@H]2CO)[C@H](O)[C@@H](O)[C@@H]1N[C@H]1C=C(CO)[C@@H](O)[C@H](O)[C@H]1O (some centres unmarked)",
    "measured_target": "expanded OPCs",
    "reported_property": "viability at 10 µM",
    "measured_number": 93.2
  }
]

# context switch: different molecule, same viability at 10 µM
INPUT: Which viability at 10 µM value is on record for `CCC(=O)O[C@@H]1CC(=O)O[C@H](C)C/C=C/C=C/[C@H](O)[C@H](C)C[C@H](CC=O)[C@H](O[C@@H]2O[C@H](C)[C@@H](O[C@H]3C[C@@](C)(O)[C@@H](OC(=O)CC)[C@H](C)O3)[C@H](N(C)C)[C@H]2O)[C@H]1OC` ?
OUTPUT: 91.2

* * *

Tested on: expanded OPCs
procedure_text: cells
condition_details: alamarBlue viability of expanded OPCs, compound at 10 µM, relative to DMSO control
Measured 10 µM (% DMSO) by item
Use % DMSO as the unit, but write only the number.

[
  {
    "compound": "CCCC(=O)O[C@]1(C(=O)COC(=O)CC)CC[C@H]2[C@@H]3CCC4=CC(=O)CC[C@]4(C)[C@H]3[C@@H](O)C[C@@]21C [Hydrocortisone buteprate]",
    "10 µM (% DMSO)": 90.3
  }
]

INPUT: So what does the record say about 10 µM (% DMSO) for `COC(=O)[C@H](c1ccccc1Cl)N1CCc2sccc2C1` ?
OUTPUT: 75.7

INPUT: I am curious: what 10 µM (% DMSO) value has been reported for `CCN1CCN(C(=O)N[C@@H](C(=O)N[C@@H]2C(=O)N3[C@@H]2SC(C)(C)[C@@H]3C(=O)O)c2ccccc2)C(=O)C1=O` ?
OUTPUT: 88.0

INPUT: Name the recorded 10 µM (% DMSO) for `CO[C@H]1/C=C/O[C@@]2(C)Oc3c(C)c(O)c4c(c3C2=O)C2=NC3(CCN(CC(C)C)CC3)NC2=C(NC(=O)/C(C)=C\C=C\[C@H](C)[C@H](O)[C@@H](C)[C@@H](O)[C@@H](C)[C@H](OC(C)=O)[C@@H]1C)C4=O` .
OUTPUT: 32.3

INPUT: Given Cc1nccn1CC1CCc2c(c3ccccc3n2C)C1=O (stereo not shown) , state its recorded 10 µM (% DMSO).
OUTPUT: 90.9

INPUT: Which 10 µM (% DMSO) is reported for this compound? `Nc1nc2c(ncn2COCCO)c(=O)[nH]1`
OUTPUT: 91.7

INPUT: # input compound: O=C(c1ccc(OCCN2CCCCC2)cc1)c1c(-c2ccc(O)cc2)sc2cc(O)ccc12 [Raloxifene, reference compound] ; wanted: its 10 µM (% DMSO)
OUTPUT: 7.7

* * *

System: expanded OPCs
procedure_text: cells
condition_details: alamarBlue viability of expanded OPCs, compound at 1 µM, relative to DMSO control
reported_property: 1 µM (% DMSO)
// return numeric value only (unit: % DMSO, not printed)

[
  {
    "compound": "Nc1nc2c(ncn2COCCO)c(=O)[nH]1",
    "1 µM (% DMSO)": 90.8
  },
  {
    "compound": "Cc1ccc(S(=O)(=O)NC(=O)NN2CCCCCC2)cc1 [Tolazamide]",
    "1 µM (% DMSO)": 95.8
  },
  {
    "compound": "CC(=O)OCC(=O)[C@@]1(O)CC[C@H]2[C@@H]3CCC4=CC(=O)CC[C@]4(C)[C@H]3C(=O)C[C@@]21C [Cortisone acetate]",
    "1 µM (% DMSO)": 98.1
  }
]

INPUT: Given the entry `CN1CCN(C(=O)O[C@H]2c3nccnc3C(=O)N2c2ccc(Cl)cn2)CC1` , report its measured 1 µM (% DMSO).
OUTPUT: 99.5

INPUT: Name the reported 1 µM (% DMSO) value associated with the compound `Oc1ncnc2[nH]ncc12`
OUTPUT: 89.7

INPUT: Look up 1 µM (% DMSO) for this compound: O=C(C1CCCCC1)N1CC(=O)N2CCc3ccccc3C2C1 (stereo not shown)
OUTPUT: 85.1

INPUT: Quick one: 1 µM (% DMSO) of `CO/N=C(\C(=O)N[C@@H]1C(=O)N2C(C(=O)O)=C(COC(C)=O)CS[C@H]12)c1csc(N)n1` ?
OUTPUT: 88.3

* * *

Test system: expanded OPCs
procedure_text: cells
condition_details: alamarBlue viability of expanded OPCs, compound at 1 µM, relative to DMSO control
Text: Having established a consistent assay for measuring OL differentiation in vitro, the next step was to utilize this assay to assess the ability of a wide array of compounds to promote OL differentiation. Prior to library screening, we first established the maximum non-toxic dose of each compound in the library. […] Three days later, we assessed viability of the treated cells by measuring AlamarBlue fluorescence, a measure of cell viability (see “Methods” section). […]
This listing pairs compounds with measured 1 µM (% DMSO).
Could you give me the number in % DMSO? Just the number is fine.

The following compounds have reported results that may help.
[
  {
    "compound": "NS(=O)(=O)Cc1noc2ccccc12 [Zonisamide]",
    "reported_property": "1 µM (% DMSO)",
    "scale_unit": "% DMSO",
    "measured_number": 92.8
  },
  {
    "compound": "Cc1cn([C@H]2C=C[C@@H](CO)O2)c(=O)[nH]c1=O [Stavudine]",
    "reported_property": "1 µM (% DMSO)",
    "scale_unit": "% DMSO",
    "measured_number": 97.1
  },
  {
    "compound": "CCCC(=O)Nc1ccc(OCC(O)CNC(C)C)c(C(C)=O)c1 (stereo not drawn) [Acebutolol]",
    "reported_property": "1 µM (% DMSO)",
    "scale_unit": "% DMSO",
    "measured_number": 111.2
  },
  {
    "compound": "NS(=O)(=O)c1cc(C(=O)O)c(NCc2ccco2)cc1Cl [Furosemide]",
    "reported_property": "1 µM (% DMSO)",
    "scale_unit": "% DMSO",
    "measured_number": 91.0
  },
  {
    "compound": "CC[C@@H](CO)NCCN[C@@H](CC)CO [Ethambutol]",
    "reported_property": "1 µM (% DMSO)",
    "scale_unit": "% DMSO",
    "measured_number": 100.0
  }
]

From here, focus on the item given below.
INPUT: Please report the recorded 1 µM (% DMSO) for CC1(C)O[C@@H]2C[C@H]3[C@@H]4CCC5=CC(=O)C=C[C@]5(C)[C@@]4(F)[C@@H](O)C[C@]3(C)[C@]2(C(=O)CO)O1 [Azmacort] .
OUTPUT: 95.0

* * *

Tested on: expanded OPCs
procedure_text: cells
condition_details: alamarBlue viability of expanded OPCs, compound at 10 µM, relative to DMSO control
reported_property: 10 µM (% DMSO)
Use % DMSO as the unit, but write only the number.

Illustrative cases are given below, each with its answer.
[
  {
    "compound": "CC(=O)/N=c1/sc(S(N)(=O)=O)nn1C [Methazolamide]",
    "scale_unit": "% DMSO",
    "10 µM (% DMSO)": 88.3
  },
  {
    "compound": "OC(c1cc(C(F)(F)F)nc2c(C(F)(F)F)cccc12)C1CCCCN1 (centres unmarked) [Mefloquine]",
    "scale_unit": "% DMSO",
    "10 µM (% DMSO)": 7.4
  },
  {
    "compound": "CN(C)[C@@H]1C(O)=C(C(N)=O)C(=O)[C@@]2(O)C(O)=C3C(=O)c4c(O)cccc4[C@@](C)(O)[C@H]3[C@H](O)[C@@H]12 [Oxytetracycline]",
    "scale_unit": "% DMSO",
    "10 µM (% DMSO)": 93.6
  },
  {
    "compound": "Cn1c(=O)c2[nH]cnc2n(C)c1=O [Theophylline]",
    "scale_unit": "% DMSO",
    "10 µM (% DMSO)": 88.9
  }
]

Consider the additional compound presented here.
INPUT: Fill in: 10 µM (% DMSO) of CCCC1O[C@@H]2C[C@H]3[C@@H]4CCC5=CC(=O)C=C[C@]5(C)[C@H]4[C@@H](O)C[C@]3(C)[C@]2(C(=O)CO)O1 (some centres unmarked) [Budesonide] is ___
OUTPUT: 95.7
